- TEST_TARGET: T1, SARS-CoV-2 RBD-mFc (SARS-CoV-2, UniProt P0DTC2 319-541)
- T1 construct: range 319-541
- MEASUREMENT_DESCRIPTION: Octet QKe BLI, 1:1 global fit
Give pKd for every item shown.
Please keep in mind that pKd is minus log10 of the molar concentration; only the number is needed.

Record SA4057 (antibody, V domains shown) VH: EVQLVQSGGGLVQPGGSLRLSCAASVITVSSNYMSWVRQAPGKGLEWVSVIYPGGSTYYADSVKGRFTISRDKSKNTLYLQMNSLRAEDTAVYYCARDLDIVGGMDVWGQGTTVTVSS VL: QLVLTQPPSVSGAPGQRVTISCTGSSSNIGAPHDVHWYQQLPGTAPRLLIYANNNRPSGVPDRFSGSKSGTSASLAITGLQDEDEADYYCQSYDSSLRAYVFGTGTKVTVL , field pKd: 10.55

Record SA4056 (antibody, V domains shown) VH: QVQLQESGGGLVQPGGSLRLSCAASVITVSSNYMSWVRQAPGKGLEWVSVIYPGGSTYYADSVKGRFTISRDKSKNTLYLQMNSLRAEDTAVYYCARDLDIVGGMDVWGQGTTVTVSS VL: DIQMTQSPSTLSASVGDRVTITCRASQSISRWLAWYQQKPGQAPKLLIYAASTLQSGVPSRFSGSGSGTEFTLTISSLQPDDFATYYCQQYDSYPRTFGQGTKVDIK , field pKd: 10.04

Record SA4053 (antibody, V domains shown) VH: EVQLVQSGGGLVQPGGSLRLSCADSGFTFSSYWMSWVRQVPGKGLEWVANIKQDGSEKYYVDSVKGRFTISRDNAKNSLYLQMNSLRAEDTAVYYCARDVGRGYCSSTSCYRFGGREDFFDYWGQGTLVTVSS VL: QLVLTQPPSVSAAPGQRVTISCSGSFSNVGNNFVSWYRHLPGTAPELLIYDNNQRPSGIPDRFSASKSGTSATLAITGLHTGDEADYYCGTWDTSLSGVVFGGGTKLTVL , field pKd: 9.16

Record SA3827 (antibody, V domains shown) VH: QVQLVESGGTLVQPGRSLRLSCAASGFTFSSYAMHWVRQAPGKGLEWVAVISYDGSNKYYADSVKGRFTISRDNSKNTLYLQMNSLRAEDTAVYYCARRGHYYDSSGFLYWGQGTLVTVSS VL: DIQMTQSPSSLSASVGDRVTITCRASQSISTYLSWYQQKPGKAPKLLIYAASNLQSGVPSRFSASGSGTDFTLTISSLQPEDFATYYCQQSYNTPRTFGQGTKVEIK , field pKd: 9.34

Record SA3856 (antibody, V domains shown) VH: QMQLVESGGGLIQPGGSLRLSCAASGFTVTSAYMSWVRQAPGKGLEWVSIIYGGGSTYYADSVKGRFTISRDNSKNTLYLQMNSLRAEDTAVYYCTGPYPGRYDYWGRGTLVTVSS VL: DIQMTQSPSSLSASVGDRVIITCRASQDIRTSLAWFQQRLGEAPRSLIYDASSLQNGVPSKFRGSGSGTDFTLTISSLQPEDFATYYCQQYKTVPLTFGGGTKVEIK , field pKd: 10.05

Record SA3779 (antibody, V domains shown) VH: QVQLVESGGGVVQPGRSLRLSCAASGFTFSSYAMHWVRQAPGKGLEWVAVISYDGSNKYYADSAKGRFTISRDNSKNTLYLQMNSLRAEDTAVYYCARRGHYYDSSGYLYWGHGTLITVSS VL: DIQMTQSPSSLSASVGDRVTITCRASQRIATYLHWYQQKPGRAPKLLIYAASSLQTGVPSRFSGSGSGTDFTLTINSLQPEDFATYYCQQSYAIPYTFGQGTKLEIK , field pKd: 8.98

Record SA4040 (antibody, V domains shown) VH: EVQLVQSGAEVKKPGASVKVSCKASGYTFTGYYMHWARQAPGQGLEWMGWINPNSGGTNYAQKFQGRVTMTRDTSITTAYMELSRLTSDDTAVYYCARDQAFSMVRGVTDYWGQGTLVTVSS VL: QSALTQPPSASGSPGQSVIISCTGSSSDVGGYNYVAWYQQYPGAAPKLIISEVTKRPSGVPDRFSGSKSGNTASLTISGLQAEDEANYYCSSYAGDNTWIFGGGTKLTVL , field pKd: 9.42

Record SA3902 (antibody, V domains shown) VH: QVQLVQSGAEVRQPGASVKVSCKTSGYAFSYYHIHWVRQAPGQGLEWMGLINPGSGGTNYAQKFQGRVTLTRDTSTSTVYMDLTGLRSEDTAVYYCAGSEQPHYYANGAYRVWGQGTLVTVSS VL: DIQMTQSPSTLSASVGDRVTITCRASQSISSYLNWYQQKPGKAPKLLIYEVSTLESGVPSRFSGSRSGTEFTLTISSLQPDDFATYYCQQYDTFGGGTKVEIK , field pKd: 9.48

Record SA3830 (antibody, V domains shown) VH: QVQLVESGGGLIQPGRSLSLSCAASGFNFDEYSMHWVRQRPGKGLEWVSGIKYNSNTILYADSVKGRFTVSRDNSKNSLYLQMNSLRAEDTAVYYCARDAMRGGDFDHWGQGTLITVSS VL: DIQMTQSPSYLSASAGDRVTITCRASQSISDWLAWYQHKPGKAPKLLIYKASRLENGVPSRFRGSGSATDFTLTISSLQAEDVAVYYCQQYYSTTWTFGQGTKVDIK , field pKd: 9.11

Record SA3755 (antibody, V domains shown) VH: QMQLVESGGGVVQPGGSLRLSCAASGFTFDDHTMHWVRQAPGKGLEWVSLISWDGGSTYYADSVKGRFTISRDNSKNSLYLQMNSLRAEDTAVYYCTRDASRRPGDGGYDFDVWGQGTQVTVSS VL: QAVVTQEPSLTVSPGGTVTLTCGSSTGTVTRGHWPYWFQQKPGQAPRTLIYDTDNKHSWTPARFSGSLLGGKAALTLSGAQPEDEADYYCLLSYSDSRVFGTGTKVTVL , field pKd: 8.97

Record SA4050 (antibody, V domains shown) VH: QVQLVESGAEVKKPGASVKVSCKASGYTFTGYFIHWVRQAPGQGLEWMGWINPNSGGTNYAQKFQGRVTMTRDTSISTAYMELSRLRSDDTAVYYCARVPHLSGYYYEGVLGYFDYWGQGTLVTVSS VL: QSALTQPASVSGSPGQSITISCTGTSIDIGSYNFVSWYQRHPGKAPRLLIYDVSDRPSGVSNRFSGSKSANTASLTISGLQAEDEADYYCSSYTSSSLWVFGGGTKLTVL , field pKd: 10.03
